The origin of these recorded values is ChEMBL document CHEMBL4308833.

Target: D(2) dopamine receptor (Homo sapiens)
Experiment: Negative allosteric modulation of recombinant human D2L receptor expressed in Flp-In CHO cells assessed as inhibition of dopamine-induced reduction in forskolin stimulated cAMP accumulation by measuring co-operativity factor preincubated for 30 mins followed by forskolin stimulation and measured after 30 mins by BRET assay
Format: functional, cell-based
// boundary case: log(activity) equal to -0.7 maps to 0 (no); strictly smaller maps to 1 (yes)

Input line: For CCN(CC)c1ncnc2sc3c(c12)CCCC3 , is the recorded log(activity) below the cut-off of -0.7?
Output line: 0 (no)

Input line: # TODO verify log(activity) < -0.7 strictly for this molecule: FC(F)(F)c1cccc(Nc2nc(CN3CCOCC3)nc3sc4c(c23)CCC4)c1
Output line: 1 (yes)

Input line: Threshold test, log(activity) < -0.7: FC(F)(F)c1cccc(Nc2nc(CN3CCOCC3)nc3sc4c(c23)CCCC4)c1
Output line: 0 (no)

Input line: Does this molecule meet the criterion log(activity) < -0.7? FC(F)(F)c1cccc(Nc2nc(CCN3CCOCC3)nc3sc4c(c23)CCCC4)c1
Output line: 0 (no)

Input line: Please indicate whether the reported log(activity) of FC(F)(F)c1cccc(Nc2nc(CCCCN3CCOCC3)nc3sccc23)c1 is strictly below -0.7.
Output line: 1 (yes)

Input line: A record lists FC(F)(F)c1cccc(Nc2nc(CN3CCCCC3)nc3sc4c(c23)CCCC4)c1 . Is its log(activity) below -0.7?
Output line: 0 (no)

Input line: Determine if COc1cccc(Nc2nc(CN3CCOCC3)nc3sc4c(c23)CCCC4)c1 shows log(activity) strictly lower than -0.7.
Output line: 1 (yes)

Input line: Criterion: log(activity) strictly below -0.7. Is it met by Fc1cccc(Nc2nc(CN3CCOCC3)nc3sc4c(c23)CCCC4)c1 ?
Output line: 0 (no)

Input line: Consider the molecule FC(F)(F)c1cccc(Nc2ncnc3sccc23)c1 . Is its log(activity) strictly less than -0.7?
Output line: 0 (no)
